# System: Mus musculus
# assay.details: Inhibition of nicotine-induced antinociception activity in ICR mouse assessed as latency to remove tail administered subcutaneously 15 mins prior to nicotine challenge and measured after 5 mins of 2.5 mg/kg nicotine challenge by tail-flick test
# Assay type: functional, organism-based
# Parameters: dose 2.5 mg/kg, route subcutaneous
quantity.kind: IC50 (mg/kg)

> print(dat)
                      smiles.representation  observed
1  Cc1cc([C@H]2[C@@H](c3ccc(Cl)c(C)c3)C[C@@H]3CC[C@H]2N3C)on1     0.009
2  COC(=O)[C@H]1[C@@H](c2ccc(Cl)c(C)c2)C[C@@H]2CC[C@H]1N2C      0.21
3  COC(=O)[C@@H]1[C@H]2CC[C@@H](C[C@H]1c1ccc(C)c(F)c1)N2     0.002
4  Cc1ccc([C@H]2C[C@@H]3CC[C@H]([C@H]2C(=O)OC2CCC2)N3C)cc1      0.28

Data credit: ChEMBL document CHEMBL1811897
